B1: Osa-1-4 twister ribozyme (parent)
chain: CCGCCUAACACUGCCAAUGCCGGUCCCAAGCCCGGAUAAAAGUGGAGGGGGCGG

Variants of: B1
ASSAY NOTES: self-cleavage, relative activity (ratio to wild type); higher = more cleavage; co-transcriptional
ASSAY METRIC: self-cleavage
I'd appreciate a reply containing only the number, no unit.

In [3]: df
Out[3]:
                     macromolecule_sequence   assay_metric  value_measured
0  CCGCCUAACACUGCCAAUGCCGGUCCCAAGCCCGGAUAAAUGUGGAGUGGGCGG [A41U G48U]  self-cleavage            0.07

Then there is this variant:
# input Recorded self-cleavage of CCGCCUAACACUGCCAAUGCCGGUCCCAAGCCCGGAUAAAAGUCGAGGGGGCGU [G44C G54U] , please.
# output 0.92

Provenance of the data: the RNAGym collection of RNA variant scans (doi:10.1002/anie.201605470)
